Source of measurements: patent US20260042764A1

biological target: Avi-KRAS G12C (2-169) GTP/RAF1 RBD-3xFLAG (51-131) (Homo sapiens, UniProt P01116, G12C); construct: Avi-KRAS G12C (2-169); assay: Raf1-KRAS G12C-GTP disruption HTRF assay (Biological Example 3); assay type: binding; settings: KRAS G12C, GTP-loaded
Sequence (P01116 2-169 isoform P01116-2 G12C): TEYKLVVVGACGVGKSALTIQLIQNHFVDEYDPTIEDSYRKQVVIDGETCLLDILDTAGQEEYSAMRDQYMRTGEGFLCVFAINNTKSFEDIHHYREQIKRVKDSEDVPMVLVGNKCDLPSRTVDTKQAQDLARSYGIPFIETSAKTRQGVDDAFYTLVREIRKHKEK
pIC50: −log10 of the molar value.

- Molecule: "CCN(c1nc(OC[C@@]23CCCN2C[C@H](F)C3)nc2c(F)c(-c3ccc(F)c4sc(N)c(C#N)c34)c(C(F)(F)F)cc12)[C@H]1CCN(C(=O)C2CC2(F)F)[C@@H]1C (some centres unmarked)"
  pIC50: "6.00 to 7.00"
- Molecule: "Cc1c(C(=O)N2CCOCC2)nn2c1CN(c1nc(OCC34CCCN3CC(F)C4)nc3c(F)c(-c4ccc(F)c5sc(N)c(C#N)c45)c(C(F)(F)F)cc13)CC2 (centres unmarked)"
  pIC50: "6.00 to 7.00"
- Molecule: "CCN(c1nc(OC[C@@]23CCCN2C[C@H](F)C3)nc2c(F)c(-c3ccc(F)c4sc(N)c(C#N)c34)c(C(F)(F)F)cc12)[C@H]1C[C@@H]2CN(C)C(=O)N2C1 (atropisomer, axis not shown)"
  pIC50: "6.00 to 7.00"
- Molecule: "CCN(c1nc(OC[C@@]23CCCN2C[C@H](F)C3)nc2c(F)c(-c3ccc(F)c4sc(N)c(C#N)c34)c(C(F)(F)F)cc12)[C@H]1CCN(C(=O)O[C@H]2CCCOC2)C1 (atropisomer, axis not shown)"
  pIC50: "6.00 to 7.00"
- Molecule: "CN(Cc1ccno1)c1nc(OC[C@@]23CCCN2C[C@H](F)C3)nc2c(F)c(-c3ccc(F)c4sc(N)c(C#N)c34)c(C(F)(F)F)cc12 (atropisomer, axis not shown)"
  pIC50: "5.00 to 6.00"
- Molecule: "CCN(c1nc(OC[C@@]23CCCN2C[C@H](F)C3)nc2c(F)c(-c3ccc(F)c4sc(N)c(C#N)c34)c(C(F)(F)F)cc12)[C@H]1CCN(C(=O)[C@H]2CCO2)[C@H]1C (atropisomer, axis not shown)"
  pIC50: "5.00 to 6.00"
- Molecule: "CCN(c1nc(OC[C@@]23CCCN2C[C@H](F)C3)nc2c(F)c(-c3ccc(F)c4sc(N)c(C#N)c34)c(C(F)(F)F)cc12)[C@H]1C[C@H](COC)N(C(=O)[C@@H]2CC2(F)F)C1 (atropisomer, axis not shown)"
  pIC50: "6.00 to 7.00"
- Molecule: "CCN(c1nc(OC[C@@]23CCCN2C[C@H](F)C3)nc2c(F)c(-c3ccc(F)c4sc(N)c(C#N)c34)c(C(F)(F)F)cc12)[C@H]1CCN(C(=O)OC2CC(F)(F)C2)C1 (atropisomer, axis not shown)"
  pIC50: "6.00 to 7.00"
- Molecule: "CCN(c1nc(OC[C@@]23CCCN2C[C@H](F)C3)nc2c(F)c(-c3ccc(F)c4sc(N)c(C#N)c34)c(C(F)(F)F)cc12)[C@H]1CCN(C(=O)c2cncs2)C1 (atropisomer, axis not shown; (aS))"
  pIC50: "6.00 to 7.00"
- Molecule: "N#Cc1c(N)sc2c(F)ccc(-c3c(C(F)(F)F)cc4c(N5Cc6ccncc6C5)nc(OC[C@@]56CCCN5C[C@H](F)C6)nc4c3F)c12"
  pIC50: "5.00 to 6.00"
- Molecule: "CCN(c1nc(OC[C@@]23CCCN2C[C@H](F)C3)nc2c(F)c(-c3ccc(F)c4sc(N)c(C#N)c34)c(C(F)(F)F)cc12)[C@H]1CCN(C(=O)C2C[C@@H]2F)[C@@H]1C (some centres unmarked)"
  pIC50: "6.00 to 7.00"
- Molecule: "CCN(c1nc(OC[C@@]23CCCN2C[C@H](F)C3)nc2c(F)c(-c3ccc(F)c4sc(N)c(C#N)c34)c(C(F)(F)F)cc12)[C@H]1C[C@H]2C[C@@H](C)C(=O)N2C1 (atropisomer, axis not shown)"
  pIC50: "≥ 7.00"
- Molecule: "CCN(c1nc(OC[C@@]23CCCN2C[C@H](F)C3)nc2c(F)c(-c3ccc(F)c4sc(N)c(C#N)c34)c(C(F)(F)F)cc12)[C@H]1C[C@H](C)N(C(=O)COC)C1 (atropisomer, axis not shown)"
  pIC50: "≥ 7.00"
- Molecule: "CN(Cc1cnco1)c1nc(OC[C@@]23CCCN2C[C@H](F)C3)nc2c(F)c(-c3ccc(F)c4sc(N)c(C#N)c34)c(C(F)(F)F)cc12"
  pIC50: "5.00 to 6.00"

* * *

system: GP2d cells (KRAS G12D); assay: Cell-based pERK HTRF assay in GP2d cell (Biological Example 2); conditions: GP2d (KRAS G12D) cells, pERK HTRF
pIC50: −log10 of the molar value.
Measured pIC50 accompanies every entry in the list below.
Parameter measured: pIC50

- Compound: "CN(c1nc(OC[C@@]23CCCN2C[C@H](F)C3)nc2c(F)c(-c3ccc(F)c4sc(N)c(C#N)c34)c(C(F)(F)F)cc12)[C@]1(CC#N)C[C@@H](O)C1 (atropisomer, axis not shown)"
  Measured: "6.00 to 7.00"
- Compound: "CC(=O)N1CC(N(C)c2nc(OCC34CCCN3CC(F)C4)nc3c(F)c(-c4ccc(F)c5sc(N)c(C#N)c45)c(C(F)(F)F)cc23)CC1C (stereo not drawn)"
  Measured: "> 7.00"
- Compound: "CN(c1nc(OC[C@@]23CCCN2C[C@H](F)C3)nc2c(F)c(-c3ccc(F)c4sc(N)c(C#N)c34)c(C(F)(F)F)cc12)[C@H]1CCS(=O)(=O)C1 (single isomer, unassigned)"
  Measured: "< 6.00"
- Compound: "CC(=O)N1CC[C@@H](N(C)c2nc(OC[C@@]34CCCN3C[C@H](F)C4)nc3c(F)c(-c4ccc(F)c5sc(N)c(C#N)c45)c(C(F)(F)F)cc23)[C@H]1C (single isomer, unassigned)"
  Measured: "< 6.00"
- Compound: "N#Cc1c(N)sc2c(F)ccc(-c3c(C(F)(F)F)cc4c(N5CCn6nccc6C5)nc(OC[C@@]56CCCN5C[C@H](F)C6)nc4c3F)c12"
  Measured: "> 7.00"
- Compound: "C[C@@H]1[C@H](N(C)c2nc(OC[C@@]34CCCN3C[C@H](F)C4)nc3c(F)c(-c4ccc(F)c5sc(N)c(C#N)c45)c(C(F)(F)F)cc23)CCN1C(=O)CF"
  Measured: "> 7.00"

* * *

Let's look at some molecules and their measured IC50.
tested on: SW620 cells (KRAS G12V); test: Cell-based pERK HTRF assay in SW620 cell (Biological Example 4); settings: Homo sapiens, SW-620, SW620 (KRAS G12V) cells
Parameter measured: IC50

- Molecule: "CCN(c1nc(OC[C@@]23CCCN2C[C@H](F)C3)nc2c(F)c(-c3ccc(F)c4sc(N)c(C#N)c34)c(C(F)(F)F)cc12)[C@@H]1CCN(C(=O)C2CC2)C1"
  Tested target: "SW620 cells (KRAS G12V)"
  Measured: "< 100 nM"
- Molecule: "CN(Cc1cnoc1)c1nc(OC[C@@]23CCCN2C[C@H](F)C3)nc2c(F)c(-c3ccc(F)c4sc(N)c(C#N)c34)c(C(F)(F)F)cc12 (atropisomer, axis not shown)"
  Tested target: "SW620 cells (KRAS G12V)"
  Measured: "< 100 nM"
- Molecule: "CCN(c1nc(OC[C@@]23CCCN2C[C@H](F)C3)nc2c(F)c(-c3ccc(F)c4sc(N)c(C#N)c34)c(C(F)(F)F)cc12)[C@H]1C[C@H](C)N(C(=O)C2C[C@H]2F)C1 (stereo partly drawn)"
  Tested target: "SW620 cells (KRAS G12V)"
  Measured: "< 100 nM"

* * *

biological target: Avi-KRAS G12V (1-169) GppNHp/RAF1 RBD-3xFLAG (52-151) (Homo sapiens, UniProt P01116, G12V); construct: Avi-KRAS G12V (1-169); experiment: Raf1-KRAS G12V-GppNHP disruption HTRF assay (Biological Example 1); assay type: binding; conditions: KRAS G12V-GppNHp/RAF1 RBD HTRF
Sequence (P01116 1-169 isoform P01116-2 G12V): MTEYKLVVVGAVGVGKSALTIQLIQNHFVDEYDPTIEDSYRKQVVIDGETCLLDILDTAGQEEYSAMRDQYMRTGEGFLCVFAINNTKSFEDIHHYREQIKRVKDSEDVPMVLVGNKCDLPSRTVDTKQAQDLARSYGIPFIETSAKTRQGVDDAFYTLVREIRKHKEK

- Compound: "N#Cc1c(N)sc2c(F)ccc(-c3c(C(F)(F)F)cc4c(N5C[C@H]6C[C@@H]5[C@@H](O)C6)nc(OC[C@@]56CCCN5C[C@H](F)C6)nc4c3F)c12 [Compound 360]"
  IC50: "1000 to 10000 nM"
- Compound: "CCC(=O)N1CC[C@@H]2[C@H]1CN2c1nc(OC[C@@]23CCCN2C[C@H](F)C3)nc2c(F)c(-c3ccc(F)c4sc(N)c(C#N)c34)c(C(F)(F)F)cc12 [Compound 515]"
  IC50: "100 to 1000 nM"
- Compound: "CN1CCN(c2nc(OC[C@@]34CCCN3C[C@H](F)C4)nc3c(F)c(-c4ccc(F)c5sc(N)c(C#N)c45)c(C(F)(F)F)cc23)CCS1(=O)=O [Compound 311]"
  IC50: "> 10000 nM"
